Property: amyloid nucleation score; scope: individual substances
assay: amyloid nucleation score (Sup35N fusion, yeast selection) (log enrichment); library NNK2; higher = more nucleation; inactive = no reads after selection;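 also: zero at mode of non-aggregating sequences after 7 days selection at 30°C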
Give only the figure.

CYSKLNASSVCIKFLPSQHE; -0.314
GYTVCRLGCRFVMSLWNILV; -0.221
RLTVTGVALVFKGFAAEYGL; 5.81

Please look up its amyloid nucleation score: TSESSV
-0.36

----------
experiment: amyloid nucleation score (Sup35N fusion, yeast selection) (log enrichment); library NNK3; higher = more nucleation; inactive = no reads after selection
MEASUREMENT TYPE: amyloid nucleation score

Some substances with known amyloid nucleation score results, for comparison:
ELRQFSP; inactive
GHLSIHREGFNLVSHLCANF; inactive
QGNWHYWCKDVRKLSLPKEL; inactive
AANLGRSIPESSRKGIGFNF; inactive
CPGDPVESRCFPVLVNLRRG; inactive

Please look up its amyloid nucleation score: CLKFQSVY
inactive

Please look up its amyloid nucleation score: HFCPVRKGGAGIRYFYCSCW
1.7

Please look up its amyloid nucleation score: DGARLCSAAMLAGQGLDEDG
inactive

Please look up its amyloid nucleation score: FLVGPPNL
inactive

Please look up its amyloid nucleation score: HLGVGG
inactive
